Subject of test: Human immunodeficiency virus type 1 integrase (Human immunodeficiency virus 1, UniProt Q7ZJM1)
Sequence (Q7ZJM1 whole entry): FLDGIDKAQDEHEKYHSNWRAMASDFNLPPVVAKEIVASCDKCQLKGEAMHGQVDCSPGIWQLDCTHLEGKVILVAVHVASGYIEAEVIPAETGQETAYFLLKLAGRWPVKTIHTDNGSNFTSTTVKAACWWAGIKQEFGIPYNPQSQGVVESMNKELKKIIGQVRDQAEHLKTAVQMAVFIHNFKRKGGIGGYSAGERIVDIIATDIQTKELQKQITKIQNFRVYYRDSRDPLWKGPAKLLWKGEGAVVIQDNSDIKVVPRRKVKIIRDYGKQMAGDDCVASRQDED
Experiment description: Concentration required for inhibition of HIV-1 integrase mediated 3'-end processing
Result type: IC50

| Substance | IC50 |
| --- | --- |
| H-LPWKWPWWPWPP-NH2 | 185 µM |

*Q* Identify measured IC50 associated with "H-ILPWKWPWWPWPP-NH2"
*A* 16 µM

*Q* State its IC50 for this substance: "H-ILPWKWPWWPWP-NH2"
*A* 180 µM

*Q* Annotate the substance "H-ILAWKWAWWAWPP-NH2" with its measured IC50.
*A* 54 µM

*Q* Tell us which IC50 value is on record for "H-ILPWGWPWWPWPP-NH2"
*A* > 333 µM

----------
Subject of test: Human immunodeficiency virus type 1 integrase (Human immunodeficiency virus 1, UniProt Q7ZJM1)
Experiment description: Concentration required for inhibition of HIV-1 integrase mediated strand transfer
Result type: pIC50
Remember the convention: pIC50 equals -log10 of concentration in molar.

Known pIC50 results, listed for orientation:
| Substance | pIC50 |
| --- | --- |
| H-ILPWKWPWWPWPP-NH2 | 4.89 |
| H-ILPWKWPWWPWP-NH2 | 4.10 |
| H-ILAWKWAWWAWPP-NH2 | 4.39 |

Consider the additional substance presented here.
*Q* # return recorded pIC50 for input "H-LPWKWPWWPWPP-NH2"
*A* 3.67
